# targetUnderTest: Proto-oncogene tyrosine-protein kinase receptor Ret (Homo sapiens)
# Sequence (P07949 whole entry): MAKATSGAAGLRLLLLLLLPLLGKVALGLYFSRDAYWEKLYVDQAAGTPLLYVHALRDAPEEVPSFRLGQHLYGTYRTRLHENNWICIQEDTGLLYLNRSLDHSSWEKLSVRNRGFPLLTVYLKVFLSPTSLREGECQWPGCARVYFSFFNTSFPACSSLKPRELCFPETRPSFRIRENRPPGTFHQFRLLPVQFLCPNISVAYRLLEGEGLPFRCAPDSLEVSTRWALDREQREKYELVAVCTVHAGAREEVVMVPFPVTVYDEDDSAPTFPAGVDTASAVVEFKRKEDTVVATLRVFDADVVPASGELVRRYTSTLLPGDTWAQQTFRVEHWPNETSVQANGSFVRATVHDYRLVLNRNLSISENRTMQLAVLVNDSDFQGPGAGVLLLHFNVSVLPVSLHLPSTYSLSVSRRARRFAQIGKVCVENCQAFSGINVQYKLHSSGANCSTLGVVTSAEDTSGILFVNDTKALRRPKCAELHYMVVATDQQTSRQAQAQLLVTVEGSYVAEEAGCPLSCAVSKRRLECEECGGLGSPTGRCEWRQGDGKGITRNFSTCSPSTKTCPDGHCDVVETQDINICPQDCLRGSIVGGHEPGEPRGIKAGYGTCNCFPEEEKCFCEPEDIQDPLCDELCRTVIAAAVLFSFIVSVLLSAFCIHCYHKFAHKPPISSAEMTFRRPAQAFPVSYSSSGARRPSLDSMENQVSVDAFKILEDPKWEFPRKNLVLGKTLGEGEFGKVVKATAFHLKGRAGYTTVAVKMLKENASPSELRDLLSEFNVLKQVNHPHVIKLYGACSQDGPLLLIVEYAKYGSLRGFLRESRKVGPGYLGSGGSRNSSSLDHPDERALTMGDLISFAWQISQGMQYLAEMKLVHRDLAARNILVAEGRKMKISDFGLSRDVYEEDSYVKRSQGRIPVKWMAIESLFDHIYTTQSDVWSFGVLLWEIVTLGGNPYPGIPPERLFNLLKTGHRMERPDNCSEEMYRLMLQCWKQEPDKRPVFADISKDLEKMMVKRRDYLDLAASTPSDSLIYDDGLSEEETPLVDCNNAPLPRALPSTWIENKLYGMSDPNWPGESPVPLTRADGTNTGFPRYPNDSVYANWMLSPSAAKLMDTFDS
# experimentSummary: Inhibition of RET kinase in Sf9 cells
quantityKind: IC50 (nM)

Example cases with answers are listed next.
Oc1cc(Nc2ccnc3cc(-c4cccc(CNCCN5CCOCC5)c4)ccc23)c(F)cc1Cl :: 75
Cc1ccc(O)cc1Nc1ccnc2cc(-c3csc(CN4CCOCC4)n3)c(S(C)(=O)=O)cc12 :: 34
Cc1ccc(O)cc1Nc1ccnc2cc(-c3ccccn3)ccc12 :: 75

P = OCc1nc(-c2ccc3c(Nc4cc(O)c(F)cc4Cl)ccnc3c2)cs1
Q = Cc1ccc(O)cc1Nc1ccnc2ccc(S(=O)(=O)NCC3CC3)cc12
Lab notebook, comparison: P versus Q , higher IC50 goes to which? State your choice using its label.
Q
(Q: 90 nM, P: 25 nM)
